The origin of these recorded values is patent US5348968A.

# System name: 5-HT1 receptor (Canis lupus familiaris, UniProt P79250)
# Construct: The venae saphenae are rapidly removed and cut into rings
# Sequence (P79250 whole entry): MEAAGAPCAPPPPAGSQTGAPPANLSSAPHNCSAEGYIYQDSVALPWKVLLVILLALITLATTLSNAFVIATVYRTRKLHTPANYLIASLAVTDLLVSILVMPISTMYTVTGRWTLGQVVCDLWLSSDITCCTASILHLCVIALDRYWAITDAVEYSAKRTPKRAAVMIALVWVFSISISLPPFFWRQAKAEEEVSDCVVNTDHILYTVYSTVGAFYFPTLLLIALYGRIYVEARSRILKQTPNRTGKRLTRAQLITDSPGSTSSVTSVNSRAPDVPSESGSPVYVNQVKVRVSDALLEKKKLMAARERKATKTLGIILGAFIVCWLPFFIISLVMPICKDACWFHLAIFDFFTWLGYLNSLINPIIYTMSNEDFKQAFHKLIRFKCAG
# Assay comment: Contraction of the vena saphena isolated from dogs
# Measurement context: % of maximum effect induced by KCl, after phenoxybenzamine, cumulative doses 10^-9 to 10^-4 M, read-out: 50% effective concentration (EC50)
Where a name gives a salt, the structure may show the parent alone.
Readout type: pEC50
Please keep in mind that pEC50 is minus log10 of the molar concentration; only the number is needed.

Lab note: CCCN1CCC(Cc2c[nH]c3ccc(C(N)=O)cc23)C1 (stereo not shown) [Example 17, oxalate] gave pEC50 of 6.47
